Target: T1, hIL-4Rα on cells (human, UniProt P24394 26-825)
T1 sequence: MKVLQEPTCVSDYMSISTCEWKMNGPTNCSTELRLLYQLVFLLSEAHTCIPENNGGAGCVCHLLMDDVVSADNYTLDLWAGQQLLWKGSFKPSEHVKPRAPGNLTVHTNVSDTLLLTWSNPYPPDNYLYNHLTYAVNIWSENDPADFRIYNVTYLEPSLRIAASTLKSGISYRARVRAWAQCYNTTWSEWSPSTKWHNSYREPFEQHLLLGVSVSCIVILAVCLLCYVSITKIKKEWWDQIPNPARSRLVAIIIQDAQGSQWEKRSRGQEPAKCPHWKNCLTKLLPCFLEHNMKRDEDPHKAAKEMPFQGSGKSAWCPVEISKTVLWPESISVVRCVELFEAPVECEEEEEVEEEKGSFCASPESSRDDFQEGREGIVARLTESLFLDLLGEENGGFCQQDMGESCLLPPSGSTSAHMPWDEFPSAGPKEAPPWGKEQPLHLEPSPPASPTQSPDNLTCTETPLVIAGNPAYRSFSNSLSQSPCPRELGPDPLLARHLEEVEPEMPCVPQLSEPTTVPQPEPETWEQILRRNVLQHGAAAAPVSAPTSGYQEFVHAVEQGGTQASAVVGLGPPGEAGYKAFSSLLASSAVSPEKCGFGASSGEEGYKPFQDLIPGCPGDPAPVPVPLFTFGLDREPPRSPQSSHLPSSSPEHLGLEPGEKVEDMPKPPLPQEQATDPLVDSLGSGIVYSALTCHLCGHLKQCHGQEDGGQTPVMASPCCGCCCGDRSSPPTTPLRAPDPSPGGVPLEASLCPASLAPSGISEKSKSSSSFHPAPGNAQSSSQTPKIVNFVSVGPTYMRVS
Assay: cell-based or functional assay
List of Relative Inhibition of IL-4 induced TF-1 Proliferation IC50 values.

Construct 2 (mAb411) (antibody, IgG4, V domains shown, VH/VL only) VH: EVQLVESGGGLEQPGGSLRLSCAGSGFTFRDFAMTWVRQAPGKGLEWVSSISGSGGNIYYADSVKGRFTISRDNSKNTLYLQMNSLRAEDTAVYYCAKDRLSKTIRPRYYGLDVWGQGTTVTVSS VL: DIVMTQSPLSLPVTPGEPASISCTASQSLLYSIGYNYVDWYLQKSGQSPQLLIYLGSKRASGVPDRFSGSGSGTDFTLKISRVEAEDVGFYYCMQALTTPYTFGQGTKLEIK	0.376 relative to dupilumab

Shift focus to the following entry.
Specify reported Relative Inhibition of IL-4 induced TF-1 Proliferation IC50 for the binder shown: Construct 10 (mAb419) (antibody, IgG4, V domains shown, VH/VL only) VH: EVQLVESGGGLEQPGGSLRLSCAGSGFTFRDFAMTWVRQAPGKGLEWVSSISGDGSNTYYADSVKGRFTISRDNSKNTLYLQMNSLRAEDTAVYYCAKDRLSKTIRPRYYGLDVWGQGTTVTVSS VL: DIVMTQSPLSLPVTPGEPASISCRSSQSLLYSIGYNYVDWYLQKSGQSPQLLIYLGNKRASGVPDRFSGSGSGTDFTLKISRVEAEDVGFYYCMQALGSPYTFGQGTKLEIK
0.431 relative to dupilumab
